Data origin: patent US20170204092A1

I'd be grateful if you could share measured inhibition at 1 µM for these entries.
Test system: MiaPaCa-2 cells
assay_notes: Cytotoxicity assay in MiaPaCa-2 (XTT, 72 h)
Assay type: cell-based
condition_notes: Homo sapiens, MIA PaCa-2, 72 h, 1 μM, DMSO control = 0% inhibition, read-out: Cell cytotoxicity assay (% Inhibition at 1 μM)
One number for each entry, in %.

Solved entries:
1. Cc1cc(NC(=O)NCC2=NOC(COc3cccnc3-c3ccc(F)nc3)C2)ccn1 (racemic) ... 89
2. O=C(NCC1=NOC(COc2cc(Cl)cnc2-c2ccc(F)nc2)C1)c1ccc2nccn2c1 (single isomer, unassigned) [Example 14a] ... 93
3. Cc1cnc(-c2ccc(F)nc2)c(OCC2CC(CNC(=O)c3ccc4nccn4c3)=NO2)c1 (racemic) [Example 11] ... 96
4. O=C(NCC1=NOC(COc2cc(F)cnc2-c2ccc(F)nc2)C1)c1ccc2nccn2c1 (racemic) ... 88
5. O=C(NCC1=NOC(COc2cc(Cl)cnc2-c2cccnc2)C1)c1ccc2nccn2c1 (racemic) ... 95
6. O=C(NCC1=NOC(COc2cc(Cl)cnc2-c2ccc(F)nc2)C1)c1ccc2nccn2c1 (racemic) [Example 14] ... 95
7. O=C(NCC1=NOC(COc2ncccc2-c2ccc(F)nc2)C1)c1ccc2nccn2c1 (racemic) ... 95

### Prompt Determine from records and report inhibition at 1 µM for Cc1ccc(OCC2CC(CNC(=O)c3ccc4nccn4c3)=NO2)c(-c2ccc(F)nc2)n1 (racemic)
### Response 96
